Reference for the values: patent US5919790A

TARGET: Ich-2 (Homo sapiens, UniProt P49662)
Sequence (P49662 81-270 limits assumed): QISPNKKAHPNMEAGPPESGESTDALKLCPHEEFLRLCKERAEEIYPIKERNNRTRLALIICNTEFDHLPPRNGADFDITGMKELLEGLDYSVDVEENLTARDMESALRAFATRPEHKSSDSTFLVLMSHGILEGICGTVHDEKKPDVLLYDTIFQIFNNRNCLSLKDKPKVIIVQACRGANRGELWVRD
Sequence (P49662 290-377 limits assumed): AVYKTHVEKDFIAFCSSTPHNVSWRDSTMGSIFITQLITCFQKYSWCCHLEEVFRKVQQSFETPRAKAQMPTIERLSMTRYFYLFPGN
EXPERIMENTAL ENDPOINT: IC50 (nM)
I only need the number, in nM, no unit after it.

stdin: For the compound O=C(O)C[C@H](NC(=O)OCc1ccccc1)C(=O)CON1C(=O)C2C3C=CC(O3)C2C1=O (stereo partly shown) , give its reported IC50.
stdout: 100

* * *

TARGET: UniProt:P29466
EXPERIMENTAL ENDPOINT: pIC50
Quick note: pIC50 means taking -log10 of the concentration in moles per liter.

Some entries whose results are on file:
- COMPOUND: "O=C(O)CC(NC(=O)OCc1ccccc1)C(=O)CONC(=O)Cc1ccccc1 (stereo not drawn)"
  pIC50: 3.59
- COMPOUND: "CC(NC(=O)C(NC(=O)OCc1ccccc1)C(C)C)C(=O)NC(CC(=O)O)C(=O)CON1C(=O)Cc2ccccc21 (stereo not drawn)"
  pIC50: 8.52

stdin: Give the value of pIC50 reported for the following: O=C(O)C[C@H](NC(=O)OCc1ccccc1)C(=O)CON1CCCC1=O
stdout: 3.40

* * *

Each entry below carries its reported pKi.
TARGET: ICE (interleukin-1β converting enzyme) (Homo sapiens)
Sequence (P29466 120-297 limits assumed): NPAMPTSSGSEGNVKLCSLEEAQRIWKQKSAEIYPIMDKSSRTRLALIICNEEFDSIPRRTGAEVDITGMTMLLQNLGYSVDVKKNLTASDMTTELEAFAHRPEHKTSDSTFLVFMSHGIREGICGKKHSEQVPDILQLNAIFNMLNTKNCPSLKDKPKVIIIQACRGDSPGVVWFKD
Sequence (P29466 317-404 limits assumed): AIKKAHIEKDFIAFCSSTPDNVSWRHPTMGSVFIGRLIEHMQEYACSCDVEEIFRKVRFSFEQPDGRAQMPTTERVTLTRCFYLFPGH
Note: pKi values are expressed as the negative base-10 logarithm of concentration in M.

# annotated cases, reported pKi shown
- COMPOUND: "O=C(O)CC(NC(=O)OCc1ccccc1)C(=O)CON1C(=O)CC2CCCCC21 (stereo not drawn)"
  EXPERIMENTAL ENDPOINT: "pKi"
  VALUE: 5.04
- COMPOUND: "O=C(O)C[C@H](NC(=O)OCc1ccccc1)C(=O)CON1C(=O)C2C3C=CC(O3)C2C1=O (stereo partly drawn)"
  EXPERIMENTAL ENDPOINT: "pKi"
  VALUE: 5.68

stdin: Tell me measured pKi for O=C(O)CC(NC(=O)OCc1ccccc1)C(=O)CON1C(=O)Cc2ccccc21 (stereo not drawn) please.
stdout: 5.80
